# Test system: replicon cells (1b-Con1)
# Test description: Replicon activity assay (replicon RNA level by real-time RT-PCR, Taqman)
# Assay type: cell-based
# Condition: Hepatitis C virus, HCV replicon genotype 1b; read-out: EC50 (1b) Range
Consider the following compounds and their measured EC50 readings.

Some entries whose results are on file:
Give its EC50 value. Item: C#C[C@]1(C)[C@@H]2O[P@](=O)(OC[C@@H](F)CC(=O)OC(C)C)OC[C@H]2O[C@H]1n1ccc(=O)[nH]c1=O [Compound 64B]
250 to 1000 nM

Then what about the compound C#C[C@]1(C)[C@@H]2O[P@](=O)(OCC[C@H](OC(C)=O)C(=O)OC(C)C)OC[C@H]2O[C@H]1n1ccc(=O)[nH]c1=O [Compound 51B] ?
≤ 250 nM

Another compound to check: CCC(CCO[P@]1(=O)OC[C@H]2O[C@@H](n3ccc(=O)[nH]c3=O)[C@](C)(N)[C@@H]2O1)C(=O)OC(C)C (stereo partly drawn) [Compound 23B]
> 10000 nM

Same again, this time with CC(C)OC(=O)[C@@H](C)CCOP1(=O)OC[C@H]2O[C@@H](n3ccc(=O)[nH]c3=O)[C@](C)(Cl)[C@@H]2O1 (single isomer, unassigned)
≤ 250 nM

How about this compound: CC(C)OC(=O)C1CC1CO[P@]1(=O)OC[C@H]2O[C@@H](n3ccc(=O)[nH]c3=O)[C@](C)(N)[C@@H]2O1 (stereo partly drawn) [Compound 47B]
> 10000 nM

Moving on to another compound below.
// EC50 lookup, key: CC(C)OC(=O)[C@@H](C)CCOP1(=O)OC[C@H]2O[C@@H](n3cnc4c(N)ncnc43)[C@](C)(Cl)[C@@H]2O1 (single isomer, unassigned)
≤ 250 nM
